Tested on: Mus musculus
METHOD DESCRIPTION: Neurotoxicity in Kunming mouse assessed as tremble at 5 to 500 mg/kg, ip observed continuously for first 2 hrs, intermittently for next 24 hrs and occasionally thereafter for 14 days
Assay type: toxicity, organism-based
PROTOCOL CONDITIONS: in vivo
METRIC: Activity

Solved entries:
>  <SMILES CODE>
COc1ccc2c3ccnc(C)c3n(CCCCOc3ccc4c5ccnc(C)c5n(CCCc5ccccc5)c4c3)c2c1.Cl

>  <METRIC>
Activity

>  <EXPERIMENTAL VALUE>
Toxic

$$$$
>  <SMILES CODE>
Cc1nccc2c3ccc(OCCCCn4c5ccccc5c5ccncc54)cc3n(CCCc3ccccc3)c12.Cl

>  <METRIC>
Activity

>  <EXPERIMENTAL VALUE>
Non-Toxic

$$$$
>  <SMILES CODE>
Cc1nccc2c3ccccc3n(CCCCOc3ccc4c5ccnc(C)c5n(CCCc5ccccc5)c4c3)c12.Cl

>  <METRIC>
Activity

>  <EXPERIMENTAL VALUE>
Non-Toxic

$$$$
>  <SMILES CODE>
Cc1nccc2c3ccc(OCCCCn4c5ccccc5c5ccnc(-c6cccs6)c54)cc3n(CCCc3ccccc3)c12.Cl

>  <METRIC>
Activity

>  <EXPERIMENTAL VALUE>
Non-Toxic

$$$$
>  <SMILES CODE>
CCCCn1c2cc(OCCCCn3c4ccccc4c4ccnc(C)c43)ccc2c2ccnc(C)c21.Cl

>  <METRIC>
Activity

>  <EXPERIMENTAL VALUE>
Non-Toxic

$$$$

## Task Field request: Activity | item: COc1ccc(-c2nccc3c4ccccc4n(CCCCOc4ccc5c6ccnc(C)c6n(CCCc6ccccc6)c5c4)c23)cc1.Cl
## Result Non-Toxic
